Data provenance: paper PMC7822030

System: E. coli MG1655 GyrB R136C
test name: microbe, parasite or virus in culture
Assay type: cell-based, Escherichia coli
condition summary: Escherichia coli, MG1655, read-out: Minimum Inhibitory Concentration E. coli MG# GyrB R#C
Threshold check on MIC: strictly below 1 µM is YES; on or above 1 µM is NO.

compound: Cc1[nH]c(C(=O)Nc2nc3ccc(C(=O)NCCOCCN4CCN(c5cc6c(cc5F)c(=O)c(C(=O)O)cn6C5CC5)CC4)cc3s2)c(Cl)c1Cl.Cl [Compound 11a]
category: YES

compound: Cc1[nH]c(C(=O)Nc2nc3ccc(C(=O)N4CCN(c5cc6c(cc5F)c(=O)c(C(=O)O)cn6C5CC5)CC4)cc3s2)c(Cl)c1Cl
category: YES

compound: Cc1[nH]c(C(=O)Nc2nc3ccc(C(=O)NCC(=O)N4CCN(c5cc6c(cc5F)c(=O)c(C(=O)O)cn6C5CC5)CC4)cc3s2)c(Cl)c1Cl
category: NO

For `Cc1[nH]c(C(=O)Nc2nc3c(OCc4ccccc4)cc(C(=O)N4CCN(c5cc6c(cc5F)c(=O)c(C(=O)O)cn6C5CC5)CC4)cc3s2)c(Cl)c1Cl` , is the recorded MIC below the cut-off of 1 µM? NO

For `Cc1[nH]c(C(=O)Nc2nc3ccc(C(=O)NCCC(=O)N4CCN(c5cc6c(cc5F)c(=O)c(C(=O)O)cn6C5CC5)CC4)cc3s2)c(Cl)c1Cl` , is the recorded MIC below the cut-off of 1 µM? NO

For Cc1[nH]c(C(=O)Nc2nc3c(OCc4ccccc4)cc(C(=O)NCCOCCN4CCN(c5cc6c(cc5F)c(=O)c(C(=O)O)cn6C5CC5)CC4)cc3s2)c(Cl)c1Cl.Cl [Compound 11b] , is the recorded MIC below the cut-off of 1 µM? NO

###

target of assay: E. coli topoisomerase IV (Escherichia coli, UniProt P0AFI2+P20083)
Construct: purchased Inspiralis, Norwich, UK
Sequence (P20083 whole entry): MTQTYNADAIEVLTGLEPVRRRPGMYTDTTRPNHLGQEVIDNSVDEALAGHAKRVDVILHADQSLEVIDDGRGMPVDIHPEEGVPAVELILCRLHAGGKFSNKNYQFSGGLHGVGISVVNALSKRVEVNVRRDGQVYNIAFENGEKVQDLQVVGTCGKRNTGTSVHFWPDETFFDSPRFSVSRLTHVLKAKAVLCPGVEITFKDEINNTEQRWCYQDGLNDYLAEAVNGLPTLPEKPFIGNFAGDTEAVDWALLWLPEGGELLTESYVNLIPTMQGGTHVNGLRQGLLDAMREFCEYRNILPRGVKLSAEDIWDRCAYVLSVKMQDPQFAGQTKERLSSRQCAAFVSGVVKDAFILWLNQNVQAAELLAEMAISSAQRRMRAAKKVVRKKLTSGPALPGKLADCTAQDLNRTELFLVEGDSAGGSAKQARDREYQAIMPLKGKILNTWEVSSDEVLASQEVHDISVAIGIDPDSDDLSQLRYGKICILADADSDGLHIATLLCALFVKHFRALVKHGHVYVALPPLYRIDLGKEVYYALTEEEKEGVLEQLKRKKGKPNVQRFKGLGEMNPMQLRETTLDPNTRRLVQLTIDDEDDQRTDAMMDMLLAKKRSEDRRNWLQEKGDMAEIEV
Sequence (P0AFI2 whole entry): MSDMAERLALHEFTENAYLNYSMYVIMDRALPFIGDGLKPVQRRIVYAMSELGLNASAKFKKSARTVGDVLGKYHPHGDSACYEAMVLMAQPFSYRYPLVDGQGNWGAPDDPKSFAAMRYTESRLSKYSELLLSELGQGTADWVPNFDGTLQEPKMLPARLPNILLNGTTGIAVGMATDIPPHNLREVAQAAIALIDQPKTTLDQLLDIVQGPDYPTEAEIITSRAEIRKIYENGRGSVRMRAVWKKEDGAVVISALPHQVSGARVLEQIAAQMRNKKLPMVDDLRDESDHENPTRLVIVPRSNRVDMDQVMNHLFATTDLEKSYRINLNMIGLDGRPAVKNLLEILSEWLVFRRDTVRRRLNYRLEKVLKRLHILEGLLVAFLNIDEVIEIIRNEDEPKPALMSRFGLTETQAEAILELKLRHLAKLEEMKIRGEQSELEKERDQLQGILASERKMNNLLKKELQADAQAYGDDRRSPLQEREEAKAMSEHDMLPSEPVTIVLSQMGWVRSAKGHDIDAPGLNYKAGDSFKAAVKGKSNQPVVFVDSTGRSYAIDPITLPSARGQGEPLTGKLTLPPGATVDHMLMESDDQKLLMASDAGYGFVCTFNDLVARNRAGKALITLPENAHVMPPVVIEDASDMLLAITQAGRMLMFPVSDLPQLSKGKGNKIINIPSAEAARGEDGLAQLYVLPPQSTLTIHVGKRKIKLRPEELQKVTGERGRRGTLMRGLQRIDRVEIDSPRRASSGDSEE
test name: E. coli topoisomerase IV relaxation assay
Format: biochemical
condition summary: relaxation assay
measured attribute: Inhibition of topoisomerase IV (in words)

compound: Cc1[nH]c(C(=O)Nc2nc3ccc(C(=O)N4CCN(c5cc6c(cc5F)c(=O)c(C(=O)O)cn6C5CC5)CC4)cc3s2)c(Cl)c1Cl [Compound 3a]
target of assay: E. coli topoisomerase IV (Escherichia coli, UniProt P0AFI2+P20083)
result value: low micromolar
--
compound: Cc1[nH]c(C(=O)Nc2nc3ccc(C(=O)NCCC(=O)N4CCN(c5cc6c(cc5F)c(=O)c(C(=O)O)cn6C5CC5)CC4)cc3s2)c(Cl)c1Cl [Compound 7b]
target of assay: E. coli topoisomerase IV (Escherichia coli, UniProt P0AFI2+P20083)
result value: low micromolar
--
compound: Cc1[nH]c(C(=O)Nc2nc3c(OCc4ccccc4)cc(C(=O)NCCOCCN4CCN(c5cc6c(cc5F)c(=O)c(C(=O)O)cn6C5CC5)CC4)cc3s2)c(Cl)c1Cl.Cl [Compound 11b]
target of assay: E. coli topoisomerase IV (Escherichia coli, UniProt P0AFI2+P20083)
result value: low micromolar

###

Test system: E. coli MG1655 GyrA S83L, D87N ParC S80I, E84G
test name: microbe, parasite or virus in culture
Type: cell-based, Escherichia coli
condition summary: in the presence of 50 µg/mL PAβN
Please use Yes whenever Minimum Inhibitory Concentration E. coli MG1655 GyrA S83L, D87N ParC S80I, E84G is not below 8 µg/mL, and No whenever it is.

compound: Cc1[nH]c(C(=O)Nc2nc3ccc(C(=O)NCC(=O)N4CCN(c5cc6c(cc5F)c(=O)c(C(=O)O)cn6C5CC5)CC4)cc3s2)c(Cl)c1Cl
target of assay: E. coli MG1655 GyrA S83L, D87N ParC S80I, E84G
category: No
//
compound: Cc1[nH]c(C(=O)Nc2nc3ccc(C(=O)N4CCN(c5cc6c(cc5F)c(=O)c(C(=O)O)cn6C5CC5)CC4)cc3s2)c(Cl)c1Cl
target of assay: E. coli MG1655 GyrA S83L, D87N ParC S80I, E84G
category: Yes
//
compound: Cc1[nH]c(C(=O)Nc2nc3ccc(C(=O)NCCC(=O)N4CCN(c5cc6c(cc5F)c(=O)c(C(=O)O)cn6C5CC5)CC4)cc3s2)c(Cl)c1Cl
target of assay: E. coli MG1655 GyrA S83L, D87N ParC S80I, E84G
category: No
//
compound: Cc1[nH]c(C(=O)Nc2nc3c(OCc4ccccc4)cc(C(=O)NCCOCCN4CCN(c5cc6c(cc5F)c(=O)c(C(=O)O)cn6C5CC5)CC4)cc3s2)c(Cl)c1Cl.Cl [Compound 11b]
target of assay: E. coli MG1655 GyrA S83L, D87N ParC S80I, E84G
category: No

Quick check, Minimum Inhibitory Concentration E. coli MG1655 GyrA S83L, D87N ParC S80I, E84G >= 8 µg/mL? `Cc1[nH]c(C(=O)Nc2nc3c(OCc4ccccc4)cc(C(=O)N4CCN(c5cc6c(cc5F)c(=O)c(C(=O)O)cn6C5CC5)CC4)cc3s2)c(Cl)c1Cl` Yes
